- Measurement target: IKBKE (human)
- Protocol notes: radiometric filter-binding kinase assay, Kinase HotSpot
- Conditions used: compound 0.5 µM; ATP 10 µM
Property measured: residual activity (%)
Field format: number, assumed %, no unit text.

[Q] Answer with the recorded residual activity for the compound listed here: N#C/C(=C1/Nc2ccccc2S1)c1ccnc(NCCc2cccnc2)n1
[A] 90.3

[Q] In one line, give reported residual activity of the entry N/C(=N\N=C/c1ccc(-c2cccc([N+](=O)[O-])c2)o1)N[N+](=O)[O-] .
[A] 101

[Q] Report residual activity for Cc1cc(Nc2nc(-c3ccccc3)nc3ccccc23)n[nH]1
[A] 67.1

[Q] Specify residual activity for O=C1NC(=O)c2cc(Nc3ccc(F)cc3)c(Nc3ccc(F)cc3)cc21 and stop.
[A] 100

New cases:
[Q] Complete the entry with residual activity for O=c1[nH]c2ccccc2n1C1CCN(Cc2ccc(-c3nc4cc5[nH]cnc5cc4nc3-c3ccccc3)cc2)CC1
[A] 91.9

[Q] Answer with the recorded residual activity for the compound listed here: COc1cc2c(Nc3ccc(Br)cc3F)ncnc2cc1OCC1CCN(C)CC1
[A] 85.8

[Q] Return residual activity (reported value) for this compound: O=C(c1ccccc1)c1ccc(N2CCOCC2)cc1O
[A] 101

[Q] Respond only with residual activity recorded for COc1cc2ncnc(Nc3ccc(O)c(Br)c3)c2cc1OC
[A] 94.6

[Q] Return the recorded residual activity value; entry: Cn1cc(/C=C2\C(=O)Nc3ccc(S(N)(=O)=O)cc32)c2ccccc21
[A] 21.9

[Q] Quick one: give measured residual activity for O=c1cc(N2CCOCC2)oc2c(-c3ccccc3)cccc12
[A] 100

----------
Catalogue of compounds with associated residual activity
- Measurement target: JAK1 JH1 catalytic (human) (UniProt P23458)
- Sequence (P23458 whole entry, looked up): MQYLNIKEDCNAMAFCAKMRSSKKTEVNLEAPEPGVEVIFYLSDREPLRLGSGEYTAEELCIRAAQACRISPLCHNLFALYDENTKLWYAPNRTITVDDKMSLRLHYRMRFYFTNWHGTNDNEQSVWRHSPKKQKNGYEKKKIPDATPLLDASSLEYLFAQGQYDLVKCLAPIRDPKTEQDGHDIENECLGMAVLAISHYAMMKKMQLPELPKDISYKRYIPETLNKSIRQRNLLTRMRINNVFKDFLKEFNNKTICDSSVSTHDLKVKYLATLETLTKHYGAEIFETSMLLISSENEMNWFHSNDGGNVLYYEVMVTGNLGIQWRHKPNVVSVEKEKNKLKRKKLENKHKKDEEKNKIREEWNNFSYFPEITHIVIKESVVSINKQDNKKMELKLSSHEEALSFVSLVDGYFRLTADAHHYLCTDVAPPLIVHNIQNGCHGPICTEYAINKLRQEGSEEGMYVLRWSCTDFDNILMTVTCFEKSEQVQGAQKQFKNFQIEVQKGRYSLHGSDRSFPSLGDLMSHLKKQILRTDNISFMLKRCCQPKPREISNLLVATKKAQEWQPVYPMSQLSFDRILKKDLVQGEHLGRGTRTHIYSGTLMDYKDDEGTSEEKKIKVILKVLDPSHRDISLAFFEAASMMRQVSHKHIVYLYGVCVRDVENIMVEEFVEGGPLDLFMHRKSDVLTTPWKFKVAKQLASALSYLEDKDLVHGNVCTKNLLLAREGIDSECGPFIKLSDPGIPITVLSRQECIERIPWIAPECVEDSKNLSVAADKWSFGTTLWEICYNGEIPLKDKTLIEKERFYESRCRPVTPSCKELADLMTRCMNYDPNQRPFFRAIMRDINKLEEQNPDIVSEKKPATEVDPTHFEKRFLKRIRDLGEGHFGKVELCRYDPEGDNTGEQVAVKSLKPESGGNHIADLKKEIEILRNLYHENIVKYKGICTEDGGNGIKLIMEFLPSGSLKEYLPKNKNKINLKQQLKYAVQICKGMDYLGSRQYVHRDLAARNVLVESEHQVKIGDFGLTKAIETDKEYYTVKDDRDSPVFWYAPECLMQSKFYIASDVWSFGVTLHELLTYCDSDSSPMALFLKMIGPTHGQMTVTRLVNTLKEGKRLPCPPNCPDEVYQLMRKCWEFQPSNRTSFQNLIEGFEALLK
- Protocol notes: radiometric filter-binding kinase assay, Kinase HotSpot
- Conditions used: compound 0.5 µM; ATP 10 µM
Numeric only. Scale: %

Take a look at these entries with their results.
[Q] Give reported residual activity value for N#CCCc1ccc2c(c1)-c1[nH]c3ccc([N+](=O)[O-])cc3c1CC(=O)N2
[A] 91.9

[Q] Read the entry N/C(=N\N=C/c1ccc(-c2cccc([N+](=O)[O-])c2)o1)N[N+](=O)[O-] and write its reported residual activity.
[A] 102

[Q] Output measured residual activity for this item: COc1cc2c(cc1OC)-c1[nH]nc(Nc3cccc(F)c3)c1C2
[A] 97.6

[Q] Assign residual activity to the following record: O=C(c1ccccc1)c1ccc(N2CCOCC2)cc1O
[A] 108

[Q] Quick one: give measured residual activity for CCOc1cc2ncnc(Nc3cccc(Br)c3)c2cc1OCC
[A] 102

Let us move to another entry and its residual activity.
[Q] Identify the reported residual activity for the following entry. N#Cc1c(NC(=O)c2cccc3ccccc23)sc2c1CCCC2
[A] 108

----------
Here, each record is paired with measured residual activity data.
- System: SGK1 (human), O00141 [S422D]
- Sequence (O00141 whole entry S422D, looked up): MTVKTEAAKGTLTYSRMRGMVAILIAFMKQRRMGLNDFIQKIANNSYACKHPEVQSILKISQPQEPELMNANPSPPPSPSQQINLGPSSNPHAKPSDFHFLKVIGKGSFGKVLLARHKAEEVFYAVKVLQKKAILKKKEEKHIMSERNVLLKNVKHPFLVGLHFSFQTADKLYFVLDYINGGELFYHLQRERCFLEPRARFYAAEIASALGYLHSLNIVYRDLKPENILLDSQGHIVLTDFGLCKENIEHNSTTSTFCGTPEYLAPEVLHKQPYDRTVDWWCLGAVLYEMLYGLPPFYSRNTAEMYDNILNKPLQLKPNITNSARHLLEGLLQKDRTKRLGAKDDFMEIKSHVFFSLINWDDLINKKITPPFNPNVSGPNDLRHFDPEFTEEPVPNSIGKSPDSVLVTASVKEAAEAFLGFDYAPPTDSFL
- Protocol notes: radiometric filter-binding kinase assay, Kinase HotSpot
- Conditions used: compound 0.5 µM; ATP 10 µM
Kindly provide the numeric value in % only, without the unit symbol.

[Q] Return the recorded residual activity value; entry: O=c1cc(N2CCNCC2)oc2c(-c3ccccc3)cccc12
[A] 103

[Q] Determine from records and report residual activity for COc1cccc(-c2cc(=O)c3ccccc3o2)c1N
[A] 102

[Q] Dear colleague, please send me the reported residual activity for O=C1Nc2cc(Br)ccc2/C1=C1/Nc2ccccc2/C1=N\O when you can.
[A] 60.9

[Q] Provide measured residual activity value, entry: COc1cc2ncc(-c3ccccc3)nc2cc1OC
[A] 88.5

[Q] Provide only the value of recorded residual activity for O=C1NC(=O)c2c1c1c3ccccc3[nH]c1n1cncc21
[A] 69

Would you kindly look at the next entry?
[Q] Tell me residual activity reported for N#CC(C#N)=C(N)/C(C#N)=C/c1ccc(O)cc1
[A] 96.1

----------
- Measurement target: OXSR1 (human)
- Protocol notes: radiometric filter-binding kinase assay, Kinase HotSpot
- Conditions used: compound 0.5 µM; ATP 10 µM
Measured residual activity by item
# number only, unit % dropped from output

[Q] Consider the compound Nc1ncnc2c1cnn2-c1ccccc1 tested on OXSR1 (human); state its residual activity.
[A] 92.6

Continuing:
[Q] GET residual activity | system: OXSR1 (human) | item: CCCCc1c(-c2ccc(O)cc2)[nH]c2nccnc12
[A] 95.5

[Q] GET residual activity where system = OXSR1 (human) and item = O=C1NC(=O)c2cc(Nc3ccc(F)cc3)c(Nc3ccc(F)cc3)cc21
[A] 101

[Q] Provide the reported residual activity (system: OXSR1 (human)) for O=c1c2ccccc2[nH]c(=S)n1CCN1CCC(=C(c2ccc(F)cc2)c2ccc(F)cc2)CC1
[A] 115

[Q] Provide residual activity, recorded with OXSR1 (human), of O=C1NC(=O)c2c1c1c3ccccc3[nH]c1c1[nH]c3cc(Br)ccc3c21
[A] 95.8

[Q] Enter recorded residual activity with OXSR1 (human) for Cc1cc(Nc2nc(-c3ccccc3)nc3ccccc23)n[nH]1 here.
[A] 98.1

[Q] Give residual activity for this entry on OXSR1 (human): COc1cc2c(N3CCN(C(=O)Nc4ccc(OC(C)C)cc4)CC3)ncnc2cc1OCCCN1CCCCC1
[A] 95.8

[Q] Report value only: residual activity, OXSR1 (human), COc1cc2ncnc(Nc3ccc(O)c(Br)c3)c2cc1OC
[A] 98.8

[Q] Param request: residual activity | system OXSR1 (human) | item FC(F)(F)c1ccc(/C=C/c2nc(COc3ccc(CCCCn4ccnn4)cc3)co2)cc1
[A] 99.7

[Q] Jot down residual activity (OXSR1 (human)) of N#C/C(=C1/Nc2ccccc2S1)c1ccnc(NCCc2cccnc2)n1 .
[A] 99

----------
- Measurement target: DYRK3 (human)
- Protocol notes: radiometric filter-binding kinase assay, Kinase HotSpot
- Conditions used: compound 0.5 µM; ATP 10 µM
Property measured: residual activity (%)
Could you give me the number in %? Just the number is fine.

Examples with answers:
[Q] Consider the molecule CCOc1cc2ncnc(Nc3cccc(Br)c3)c2cc1OCC and give its recorded residual activity.
[A] 98.5

[Q] // Input: N#C/C(=C1/Nc2ccccc2S1)c1ccnc(NCCc2cccnc2)n1 . Output its residual activity only.
[A] 103

[Q] In one line, give reported residual activity of the entry O=c1[nH]c2ccccc2n1C1CCN(Cc2ccc(-c3nc4cc5[nH]cnc5cc4nc3-c3ccccc3)cc2)CC1 .
[A] 101

[Q] Using the record for COc1cc2c(cc1OC)-c1[nH]nc(Nc3cccc(F)c3)c1C2 , state its measured residual activity.
[A] 84.4

[Q] Find the measured residual activity of O=C1NC(=O)c2cc(Nc3ccc(F)cc3)c(Nc3ccc(F)cc3)cc21 and report it.
[A] 97.1

[Q] Please report the measured residual activity for O=S(=O)(NCCNC/C=C/c1ccc(Br)cc1)c1cccc2cnccc12
[A] 83.5

Continuing:
[Q] Report measured residual activity; entry is O=C(c1ccccc1)c1ccc(N2CCOCC2)cc1O
[A] 98.9

[Q] For the molecule CCc1nc(-c2ccc(OC)cc2)[nH]c1-c1ccncc1 , give its reported residual activity.
[A] 95.5

[Q] Find the measured residual activity of O=C1NC(=O)c2c1c1c3ccccc3[nH]c1c1[nH]c3cc(Br)ccc3c21 and report it.
[A] 94.5

[Q] Name the recorded residual activity of the item COc1cc2c(N3CCN(C(=O)Nc4ccc(OC(C)C)cc4)CC3)ncnc2cc1OCCCN1CCCCC1 in your answer.
[A] 109

----------
- Measurement target: CAMK2D (human) (UniProt Q13557)
- Sequence (Q13557 whole entry, looked up): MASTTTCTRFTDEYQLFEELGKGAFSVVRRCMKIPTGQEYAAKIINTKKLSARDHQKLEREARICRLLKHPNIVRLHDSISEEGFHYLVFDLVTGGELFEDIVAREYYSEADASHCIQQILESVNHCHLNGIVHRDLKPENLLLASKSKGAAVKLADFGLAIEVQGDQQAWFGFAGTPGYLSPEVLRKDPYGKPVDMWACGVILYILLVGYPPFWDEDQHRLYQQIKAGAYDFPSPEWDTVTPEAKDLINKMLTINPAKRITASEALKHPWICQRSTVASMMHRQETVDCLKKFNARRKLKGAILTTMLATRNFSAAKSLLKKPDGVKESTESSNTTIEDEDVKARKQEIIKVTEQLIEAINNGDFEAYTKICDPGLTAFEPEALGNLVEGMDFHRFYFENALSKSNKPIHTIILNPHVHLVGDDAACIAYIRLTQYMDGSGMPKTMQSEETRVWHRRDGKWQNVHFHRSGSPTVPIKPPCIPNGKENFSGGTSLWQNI
- Protocol notes: radiometric filter-binding kinase assay, Kinase HotSpot
- Conditions used: compound 0.5 µM; ATP 10 µM
Property measured: residual activity (%)
Report the value in % with no unit label.

[Q] Provide only the value of recorded residual activity for O=C(c1ccccc1)c1ccc(N2CCOCC2)cc1O
[A] 95.1

[Q] Tell me its residual activity given Cc1cc(Nc2nc(-c3ccccc3)nc3ccccc23)n[nH]1 as the entry.
[A] 97.3

[Q] Give recorded residual activity. O=c1c2ccccc2[nH]c(=S)n1CCN1CCC(=C(c2ccc(F)cc2)c2ccc(F)cc2)CC1
[A] 97.9

[Q] Read off the recorded residual activity for N#CCCc1ccc2c(c1)-c1[nH]c3ccc([N+](=O)[O-])cc3c1CC(=O)N2
[A] 57.8

[Q] State, in one line, measured residual activity of O=C(O)c1ccc2c3c1cccc3c(=O)n1c3ccccc3nc21
[A] 93.6

[Q] Please supply the value of reported residual activity for the item CN[C@@H]1C[C@H]2O[C@@](C)([C@@H]1OC)n1c3ccccc3c3c4c(c5c6ccccc6n2c5c31)C(=O)NC4
[A] 3.05

Field: next compound
[Q] Provide only the value of recorded residual activity for O=c1[nH]c2ccccc2n1C1CCN(Cc2ccc(-c3nc4cc5[nH]cnc5cc4nc3-c3ccccc3)cc2)CC1
[A] 97.7
